Target: BTK (Homo sapiens)
Sequence (Q06187 whole entry): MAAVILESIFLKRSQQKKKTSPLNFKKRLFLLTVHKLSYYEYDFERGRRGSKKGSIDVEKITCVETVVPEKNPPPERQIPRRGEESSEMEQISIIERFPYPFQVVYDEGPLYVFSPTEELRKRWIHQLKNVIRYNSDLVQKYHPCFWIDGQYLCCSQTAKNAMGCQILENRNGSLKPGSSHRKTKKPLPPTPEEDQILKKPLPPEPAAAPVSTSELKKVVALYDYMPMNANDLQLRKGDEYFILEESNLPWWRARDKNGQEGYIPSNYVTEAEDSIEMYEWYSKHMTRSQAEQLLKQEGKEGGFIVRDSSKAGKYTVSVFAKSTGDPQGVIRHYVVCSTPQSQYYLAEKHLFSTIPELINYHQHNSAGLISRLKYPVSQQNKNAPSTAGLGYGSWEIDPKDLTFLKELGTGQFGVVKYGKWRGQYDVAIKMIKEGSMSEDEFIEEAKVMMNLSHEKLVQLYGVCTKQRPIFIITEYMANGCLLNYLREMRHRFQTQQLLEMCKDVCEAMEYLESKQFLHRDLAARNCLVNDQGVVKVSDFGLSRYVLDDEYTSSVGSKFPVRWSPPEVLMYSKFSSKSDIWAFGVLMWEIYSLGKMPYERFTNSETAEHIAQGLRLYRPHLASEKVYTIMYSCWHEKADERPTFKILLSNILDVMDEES
Experiment: BTK cell degradation in TMD-8 cells, HTRF assay
Type: cell-based
Set-up: endogenous in cells; host or cells: TMD-8 cells
Settings: 6 h treatment, IC50 (DC50) of BTK degradation
readout.name: DC50 (µM)
Give bare numbers, in µM.

Recorded DC50, per entry:
{"molecule": "COc1ccc(C(F)(F)F)cc1C(=O)NCc1ccc(-c2nn3c(c2C(N)=O)Nc2ccc(N4CCN(CC5CCN(c6ccc(N7CCC(=O)NC7=O)cc6)CC5)CC4)cc2CC3)cc1F [Example C26]", "DC50 (µM)": 0.00179}
{"molecule": "Cc1cc(-c2nn3c(c2C(N)=O)Nc2ccc(N4CCN(CC5CCN(c6ccc(N7CCC(=O)NC7=O)cc6)CC5)CC4)cc2CC3)ccc1CNC(=O)c1ccn(C(C)(C)C)n1 [Example C9]", "DC50 (µM)": 0.0542}

// next item, DC50 requested
**Query** Query for BTK (Homo sapiens): what DC50 does the record show for COc1ccncc1C(=O)N[C@H](C)c1ccc(-c2nn3c(c2C(N)=O)Nc2ccc(N4CCN(CC5CCN(c6ccc(N7CCC(=O)NC7=O)cc6)CC5)CC4)cc2CC3)cc1 [Example C18] ?
**Result** 0.0125

----------
Test system: HEK-293 cells
Experiment: HEK-293 cytotoxicity detection (CellTiter-Glo)
Format: cell-based
Settings: Homo sapiens, 72 h, 72 h incubation, CellTiter-Glo luminescence, read-out: HEK293
pIC50: −log10 of the molar value.
readout.name: pIC50

Recorded pIC50, per entry:
{"molecule": "COc1cc(F)c(F)cc1C(=O)NCc1ccc(-c2nn3c(c2C(N)=O)Nc2ccc(N4CCN(CC5CCN(c6ccc(N7CCC(=O)NC7=O)cc6)CC5)CC4)cc2CC3)cc1 [Example C30]", "pIC50": "< 5.00"}
{"molecule": "NC(=O)c1c(-c2ccc(C(=O)Nc3ccc(C(F)(F)F)cn3)cc2)nn2c1Nc1ccc(N3CCN(CC4CCN(c5ccc(N6CCC(=O)NC6=O)cc5)CC4)CC3)cc1CC2 [Example B17]", "pIC50": "< 5.00"}
{"molecule": "NC(=O)c1c(-c2ccc(Oc3ccccc3)cc2)nn2c1Nc1ccc(NC(=O)COCCOCCOCCOCCNc3cccc4c3C(=O)N(C3CCC(=O)NC3=O)C4=O)cc1CC2 (stereo not drawn) [Example A2]", "pIC50": 6.25}
{"molecule": "CCC(Nc1cc(C(F)(F)F)ccn1)c1ccc(-c2nn3c(c2C(N)=O)Nc2ccc(N4CCN(CC5CCN(c6ccc(N7CCC(=O)NC7=O)cc6)CC5)CC4)cc2CC3)cc1 (stereo not drawn) [Example C17]", "pIC50": "< 5.00"}
{"molecule": "Cc1c(C(=O)Nc2cc(C)n(C)n2)ccc(-c2nn3c(c2C(N)=O)Nc2ccc(N4CCN(CC5CCN(c6ccc(N7CCC(=O)NC7=O)cc6)CC5)CC4)cc2CC3)c1F [Example B86]", "pIC50": "< 5.00"}

// next item, pIC50 requested
**Query** Quick one: pIC50 of COc1ccc(C2CC2)cc1C(=O)NCc1ccc(-c2nn3c(c2C(N)=O)Nc2ccc(N4CCN(CC5CCN(c6ccc(N7CCC(=O)NC7=O)cc6)CC5)CC4)cc2CC3)cc1 [Example C29] ?
**Result** < 5.00

----------
Consider the following molecules; for each one, report its pIC50.
System: HEK-293 cells
Experiment: HEK-293 cytotoxicity detection (CellTiter-Glo)
Type: cell-based
Conditions: Homo sapiens, 72 h, 72 h incubation, CellTiter-Glo luminescence, read-out: HEK293
pIC50: −log10 of the molar value.

Recorded pIC50, per entry:
{"molecule": "Cc1c(C(=O)Nc2cscn2)ccc(-c2nn3c(c2C(N)=O)Nc2ccc(N4CCN(C5CC(c6ccc(N[C@@H]7CCC(=O)NC7=O)cc6)C5)CC4)cc2CC3)c1F (stereo partly shown) [Example B100]", "pIC50": 7.47}
{"molecule": "Cc1cccc(NC(=O)c2cnc(-c3nn4c(c3C(N)=O)Nc3ccc(N5CCN(CCc6cc(F)c(C7CCC(=O)NC7=O)c(F)c6)CC5)cc3CC4)cc2C)n1 (stereo not shown) [Example B37]", "pIC50": "< 5.00"}
{"molecule": "Cc1c(C(=O)Nc2cscn2)ccc(-c2nn3c(c2C(N)=O)Nc2ccc(N4CCN(C(=O)C5CCN(c6ccc(N7CCC(=O)NC7=O)cc6)CC5)CC4)cc2CC3)c1F [Example B102]", "pIC50": "< 5.00"}
{"molecule": "Cc1c(C(=O)Nc2ccc3[nH]ccc3n2)ccc(-c2nn3c(c2C(N)=O)Nc2ccc(N4CCN(CC5CCN(c6ccc(N7CCC(=O)NC7=O)cc6)CC5)CC4)cc2CC3)c1F [Example B45]", "pIC50": "< 5.00"}
{"molecule": "COc1ccc2ccccc2c1C(=O)NCc1ccc(-c2nn3c(c2C(N)=O)Nc2ccc(N4CCN(CC5CCN(c6ccc(N7CCC(=O)NC7=O)cc6)CC5)CC4)cc2CC3)cc1F [Example C20]", "pIC50": "< 5.00"}

Answer for every listed entry: what is its pIC50? The entries follow.
1. NC(=O)c1c(-c2ccc(OCc3ccccc3)cc2)nn2c1Nc1ccc(N3CCN(CC4CCN(c5ccc(N6CCC(=O)NC6=O)cc5)CC4)CC3)cc1CC2 [Example A38]
2. COc1ccc2ccccc2c1C(=O)NCc1ccc(-c2nn3c(c2C(N)=O)Nc2ccc(N4CCN(CC5CCN(c6ccc(N7CCC(=O)NC7=O)cc6)CC5)CC4)cc2CC3)cc1C [Example C10]

**Result**
6.73
< 5.00

----------
System: HEK-293 cells
Experiment: HEK-293 cytotoxicity detection (CellTiter-Glo)
Format: cell-based
Conditions: Homo sapiens, 72 h, 72 h incubation, CellTiter-Glo luminescence, read-out: HEK293
pIC50: −log10 of the molar value.
Consider the following molecules; for each one, report its pIC50.

{"molecule": "Cc1c(-c2nc(-c3ccccn3)no2)ccc(-c2nn3c(c2C(N)=O)Nc2ccc(N4CCN(CC5CCN(c6ccc(N7CCC(=O)NC7=O)cc6)CC5)CC4)cc2CC3)c1F [Example B46]", "target.system": "HEK-293 cells", "pIC50": "< 5.00"}

Answer for every listed entry: what is its pIC50? The entries follow.
1. COc1c(F)cccc1C(=O)NCc1ccc(-c2nn3c(c2C(N)=O)Nc2ccc(N4CCN(CC5CCN(c6ccc(N7CCC(=O)NC7=O)cc6)CC5)CC4)cc2CC3)cc1C [Example C40]
2. Cc1c(C(=O)Nc2ncn(C)n2)ccc(-c2nn3c(c2C(N)=O)Nc2ccc(N4CCN(CC5CCN(c6ccc(N7CCC(=O)NC7=O)cc6)CC5)CC4)cc2CC3)c1F [Example B84]

**Result**
1: < 5.00; 2: < 5.00

----------
System: HEK-293 cells
Test: HEK-293 cytotoxicity detection (CellTiter-Glo)
Type: cell-based
Settings: Homo sapiens, 72 h, 72 h incubation, CellTiter-Glo luminescence, read-out: HEK293
Consider the following compounds; for each one, report its pIC50.
Numbers only, as −log10 of the molar value.

Recorded pIC50, per entry:
{"compound": "NC(=O)c1c(-c2ccc(Oc3ccccc3)cc2)nn2c1Nc1ccc(C(=O)N[C@H]3CC[C@H](CN4CCN(c5cc6c(cc5F)C(=O)N(C5CCC(=O)NC5=O)C6=O)CC4)CC3)cc1CC2 (stereo partly shown)", "pIC50": 6.40}
{"compound": "CCOc1ccnc(NC(=O)c2ccc(-c3nn4c(c3C(N)=O)Nc3ccc(N5CCN(CC6CCN(c7ccc(N8CCC(=O)NC8=O)cc7)CC6)CC5)cc3CC4)c(F)c2C)c1", "pIC50": 6.54}

// next item, pIC50 requested
**Query** Quick one: pIC50 of NC(=O)c1c(-c2ccc(Oc3ccccc3)cc2)nn2c1Nc1ccc(NC(=O)C3CCN(CC4CCN(c5ccc6c(c5)C(=O)N(C5CCC(=O)NC5=O)C6=O)CC4)CC3)cc1CC2 (stereo not shown) ?
**Result** 7.11

----------
Molecular target: BTK (Homo sapiens)
Assay: BTK cell degradation in TMD-8 cells, HTRF assay
Assay type: cell-based
Design: endogenous in cells; host or cells: TMD-8 cells
Conditions: 6 h treatment, IC50 (DC50) of BTK degradation
Consider the following molecules; for each one, report its DC50.
Entry format: amount then unit.

Answer for every listed entry: what is its DC50? The entries follow.
1. COc1ccc2ccccc2c1C(=O)NCc1ccc(-c2nn3c(c2C(N)=O)Nc2ccc(N4CCN(CC5CCN(c6ccc(N7CCC(=O)NC7=O)cc6)CC5)CC4)cc2CC3)cc1C
2. Cc1cccc(NC(=O)c2ccc(-c3nn4c(c3C(N)=O)Nc3ccc(N5CCN(CC6CCN(c7ccc(CN8CCC(=O)NC8=O)cc7)CC6)CC5)cc3CC4)c(F)c2C)n1
3. NC(=O)c1c(-c2ccc(C(=O)Nc3cc(C(F)(F)F)ccn3)cc2)nn2c1Nc1ccc(N3CCN(CC4CCN(c5ccc(N6CCC(=O)NC6=O)cc5)CC4)CC3)cc1CC2 [Example B1]
4. Cc1cccc(NC(=O)c2ccc(-c3nn4c(c3C(N)=O)Nc3ccc(N5CCN(CC6CCN(c7ccc(N8CCC(=O)NC8=O)c(C)c7)CC6)CC5)cc3CC4)c(F)c2C)n1

**Result**
["10.1 nM", "8.05 nM", "0.561 nM", "3.75 nM"]
